Assay: Highest frequency of acute liver toxicity observed during clinical trials, expressed as a percentage. [column '% AIGUE' in source]
Details: human
Give measured Hepatotoxicity (acute) for each item. Keep answers brief.
// return numeric value only (unit: %, not printed)

Challenge: Request the reported Hepatotoxicity (acute) associated with C=CCC1(C(C)C#CCC)C(=O)N=C(O)N(C)C1=O (centres undefined) [METHOHEXITAL]
Response given: 0

Challenge: Could you do the same for CC(C)[C@@H]1NC(=O)[C@H](CCCCN)NC(=O)[C@@H](Cc2c[nH]c3ccccc23)NC(=O)[C@H](Cc2ccc(O)cc2)NC(=O)[C@@H](NC(=O)[C@H](N)Cc2ccc3ccccc3c2)CSSC[C@@H](C(=O)N[C@H](C(N)=O)[C@@H](C)O)NC1=O [LANREOTIDE] , please?
Response given: 0

Challenge: Another: CCN(CC)CCCN(c1ccccc1)C1Cc2ccccc2C1 [APRINDINE]
Response given: 0.1

Challenge: Then what about the compound CC(C)Cc1ccc(CC(=O)O)cc1 [IBUFENAC] ?
Response given: 5

Challenge: Next compound: CN(CCCN1c2ccccc2CCc2ccccc21)CC(=O)c1ccc(Cl)cc1 [LOFEPRAMINE]
Response given: 2.3

Challenge: Lookup NCCCC[C@H](N[C@@H](CCc1ccccc1)C(=O)O)C(=O)N1CCC[C@H]1C(=O)O [LISINOPRIL ANHYDROUS]
Response given: 0

Challenge: Could you do the same for OCCN1CCN(CC/C=C2/c3ccccc3Sc3ccc(Cl)cc32)CC1 [ZUCLOPENTHIXOL] , please?
Response given: 0

Challenge: Again, but for CC1CCc2cc(F)cc3c(=O)c(C(=O)O)cn1c23 (centres undefined) [FLUMEQUINE]
Response given: 0

Challenge: And the next one, Cc1ncc(CSSCc2cnc(C)c(O)c2CO)c(CO)c1O [PYRITINOL] ?
Response given: 0

Challenge: And then NC(=O)CCC/N=C(\c1ccc(Cl)cc1)c1cc(F)ccc1O [PROGABIDE] , what is it?
Response given: 3.4

Challenge: Same question for COC(F)(F)C(Cl)Cl [METHOXYFLURANE] please.
Response given: 0

Challenge: Try this compound next: FCOC(C(F)(F)F)C(F)(F)F [SEVOFLURANE]
Response given: 0

Challenge: Note, next up: CN(C)CCCC1(c2ccc(F)cc2)OCc2cc(C#N)ccc21 (centres undefined) [CITALOPRAM]
Response given: 0

Challenge: // repeat for CCOC(=O)[C@H](CCc1ccccc1)N[C@H]1CCc2ccccc2N(CC(=O)O)C1=O [BENAZEPRIL] and report
Response given: 0

Challenge: Input COC1=C(OC)C(=O)C(CCCCCCCCCCO)=C(C)C1=O [IDEBENONE]
Response given: 0

Challenge: Also CC(C)C(=O)Nc1ccc([N+](=O)[O-])c(C(F)(F)F)c1 [FLUTAMIDE] , if possible.
Response given: 10

Challenge: Queued: Cc1nnc2n1-c1ccc(Cl)cc1C(c1ccccc1)=NC2 [ALPRAZOLAM]
Response given: 0.4

Challenge: What would you report for CN1CCN2c3ccccc3Cc3ccccc3C2C1 (centres undefined) [MIANSERIN] ?
Response given: 0

Challenge: How about this compound: CCC[C@H](N[C@@H](C)C(=O)N1[C@H](C(=O)O)C[C@@H]2CCCC[C@@H]21)C(=O)OCC [PERINDOPRIL]
Response given: 0

Challenge: Same read-out for C[C@H](CSC(=O)c1ccccc1)C(=O)N1C[C@@H](Sc2ccccc2)C[C@H]1C(=O)O [ZOFENOPRIL] ?
Response given: 0

Challenge: What about this compound? CCC(=O)O[C@@H](O[P@](=O)(CCCCc1ccccc1)CC(=O)N1C[C@H](C2CCCCC2)C[C@H]1C(=O)O)C(C)C [FOSINOPRIL]
Response given: 0

Challenge: Here is the next compound: CN1CCC(=C2c3ccccc3CCc3sccc32)CC1 [PIZOTYLINE]
Response given: 0

Challenge: How about Cc1ccccc1N1C(=O)c2cc(S(N)(=O)=O)c(Cl)cc2NC1C (centres undefined) [METOLAZONE] ?
Response given: 0

Challenge: Also check CCN1CCN(C(=O)N[C@@H](C(=O)N[C@@H]2C(=O)N3[C@@H]2SC(C)(C)[C@@H]3C(=O)O)c2ccccc2)C(=O)C1=O [PIPERACILLIN]
Response given: 0.2

Challenge: # iterate: CS(=O)(=O)c1ccc2c(c1)N(CCCN1CCC(C(N)=O)CC1)c1ccccc1S2 [METOPIMAZINE]
Response given: 0

Challenge: Can you handle Cc1cccc(C)c1NC(=O)C(C)N (centres undefined) [TOCAINIDE] next?
Response given: 0

Challenge: Another: CNc1nc(N(C)C)nc(N(C)C)n1 [PENTAMETHYL MELAMINE]
Response given: 0

Challenge: // next record C(=N\NC1=NCCN1)/c1c2ccccc2c(/C=N/NC2=NCCN2)c2ccccc12 [BISANTRENE]
Response given: 0

Challenge: Try this compound too: Clc1ccc(C(c2ccccc2Cl)C(Cl)Cl)cc1 (centres undefined) [MITOTANE]
Response given: 0

Challenge: C[C@H]1O[C@@H](O[C@H]2[C@@H](O)C[C@H](O[C@H]3[C@@H](O)C[C@H](O[C@H]4CC[C@@]5(C)[C@H](CC[C@@H]6[C@@H]5C[C@@H](O)[C@]5(C)[C@@H](C7=CC(=O)OC7)CC[C@]65O)C4)O[C@@H]3C)O[C@@H]2C)C[C@H](O)[C@@H]1O [DIGOXIN] ?
Response given: 0

Challenge: Further, for O=C(O)P(=O)(O)O [FOSCARNET] ?
Response given: 0

Challenge: And C#C[C@]1(O)CC[C@H]2[C@@H]3CCC4=CCCC[C@@H]4[C@H]3CC[C@@]21C [LYNESTRENOL] ?
Response given: 0

Challenge: What about this compound? COc1ccc(C(=O)N2CCN(c3ccc4c(c3)CCC(=O)N4)CC2)cc1OC [VESNARINONE]
Response given: 0

Challenge: Request: "CC(=O)OCC1=C(C(=O)O)N2C(=O)[C@@H](NC(=O)CC#N)[C@H]2SC1"
Response given: 0

---

Conditions: human
endpoint name: Hepatotoxicity (steatosis)

Challenge: Entry under review: CCOP(=O)(OCC)C(C)NC(=O)N(CCCl)N=O (configuration not stated) [FOTEMUSTINE] . Reported Hepatotoxicity (steatosis)?
Response given: 0

Challenge: Another: N[C@@H]1CN(c2c(F)cc3c(=O)c(C(=O)O)cn([C@@H]4C[C@@H]4F)c3c2Cl)CC12CC2 [SITAFLOXACIN ANHYDROUS]
Response given: 0

Challenge: Field entry: C[C@]1(O)CC[C@H]2[C@@H]3CCC4=CC(=O)CC[C@]4(C)[C@@]3(F)[C@@H](O)C[C@@]21C [FLUOXYMESTERONE]
Response given: 0

Challenge: Also, CN1CCN(CC(=O)N2c3ccccc3C(=O)Nc3cccnc32)CC1 [PIRENZEPINE] please.
Response given: 0

Challenge: // query: O=C1CN=C(c2ccccc2)c2c(sc3c2CCCC3)N1 [BENTAZEPAM]
Response given: 0

Challenge: Let us now turn to CC(=O)Nc1c(I)c(NC(C)=O)c(I)c(C(=O)O)c1I [DIATRIZOIC ACID]
Response given: 0

Challenge: Entry CC(C)c1nc(CN(C)C(=O)N[C@H](C(=O)N[C@@H](Cc2ccccc2)C[C@H](O)[C@H](Cc2ccccc2)NC(=O)OCc2cncs2)C(C)C)cs1 [RITONAVIR] please
Response given: 1

Challenge: Again, but for O=C1CN(/N=C/c2ccc([N+](=O)[O-])o2)C(=O)N1 [NITROFURANTOIN]
Response given: 1

Challenge: Here is the next molecule: OC[C@H]1O[C@@H](n2cnc3c2NC=NC[C@H]3O)C[C@@H]1O [PENTOSTATIN]
Response given: 1

Challenge: Consider next the molecule NC(=O)CCC/N=C(\c1ccc(Cl)cc1)c1cc(F)ccc1O [PROGABIDE] in the same way.
Response given: 0

Challenge: What about this molecule? "CC1(C)[C@H](C(=O)O)N2C(=O)C[C@H]2S1(=O)=O.CCN1CCN(C(=O)N[C@@H](C(=O)N[C@@H]2C(=O)N3C(C(=O)O)=C(CSc4nnnn4C)CS[C@H]23)c2ccc(O)cc2)C(=O)C1=O"
Response given: 0

Challenge: Then NC(=O)c1cccnc1 [NIACINAMIDE] ?
Response given: 0

Challenge: Please give the result for O=C(O)c1cccnc1Nc1cccc(C(F)(F)F)c1 [NIFLUMIC ACID] too.
Response given: 0

Challenge: Cool, now Cc1oncc1C(=O)Nc1ccc(C(F)(F)F)cc1 [LEFLUNOMIDE]
Response given: 1

Challenge: And what about the molecule Cc1ccc(C(=O)c2cc(O)c(O)c([N+](=O)[O-])c2)cc1 [TOLCAPONE] ?
Response given: 0

Challenge: What would you report for Cc1ccc(C)c(OCCCC(C)(C)C(=O)O)c1 [GEMFIBROZIL] ?
Response given: 1

Challenge: Check CN(C)[C@@H]1C(O)=C(C(=O)NCN2CCCC2)C(=O)[C@@]2(O)C(O)=C3C(=O)c4c(O)cccc4[C@@](C)(O)[C@H]3C[C@@H]12 [ROLITETRACYCLINE] too.
Response given: 0

Challenge: Again, but for Cc1onc(-c2c(Cl)cccc2Cl)c1C(=O)N[C@@H]1C(=O)N2[C@@H]1SC(C)(C)[C@@H]2C(=O)O [DICLOXACILLIN]
Response given: 0

Challenge: And CCCC[C@@H]1CC(=O)[C@]2(O)O[C@@H]3[C@@H](NC)[C@@H](O)[C@@H](NC)[C@H](O)[C@H]3O[C@@H]2O1 [TROSPECTOMYCIN] ?
Response given: 0

Challenge: Also CC1=C(/C=C/C(C)=C/C=C/C(C)=C/C(=O)O)C(C)(C)CCC1 [TRETINOIN] , if possible.
Response given: 0

Challenge: Consider next the molecule CCOC(=O)[C@H](CCc1ccccc1)N[C@H]1CCCN2CCC[C@@H](C(=O)O)N2C1=O [CILAZAPRIL] in the same way.
Response given: 0

Challenge: Here is the next molecule: C[C@@H]1C[C@H](C)CN(S(=O)(=O)c2ccc(Cl)c(C(=O)O)c2)C1 [TIBRIC ACID]
Response given: 0

Challenge: Can you check CC[C@]1(O)C[C@H]2CN(CCc3c([nH]c4ccccc34)[C@@](C(=O)OC)(c3cc4c(cc3OC)N(C=O)[C@H]3[C@@](O)(C(=O)OC)[C@H](OC(C)=O)[C@]5(CC)C=CCN6CC[C@]43[C@@H]65)C2)C1 [VINCRISTINE] next?
Response given: 0

Challenge: Please give the result for O[C@H]1[C@H]2[C@H](O)CCCN2C[C@H]1O [TRIDOLGOSIR] too.
Response given: 0

Challenge: Try N#C[C@H](O[C@@H]1O[C@H](CO[C@@H]2O[C@H](CO)[C@@H](O)[C@H](O)[C@H]2O)[C@@H](O)[C@H](O)[C@H]1O)c1ccccc1 [AMYGDALIN] next.
Response given: 0

Challenge: One more molecule: OCCOCCN1CCN(C2=Nc3ccccc3Sc3ccccc32)CC1 [QUETIAPINE]
Response given: 0

Challenge: Same again, this time with CCN1CCC[C@H]1CNC(=O)c1c(OC)ccc(Br)c1OC [REMOXIPRIDE]
Response given: 0

Challenge: Field entry: Cc1nccn1CC1CCc2c(c3ccccc3n2C)C1=O (configuration not stated) [ONDANSETRON]
Response given: 0

Challenge: And Cc1nnc2n1-c1ccc(Cl)cc1C(c1ccccc1Cl)=NC2 [TRIAZOLAM] ?
Response given: 0

Challenge: What would you report for "CCCc1nn(C)c2c(=O)[nH]c(-c3cc(S(=O)(=O)N4CCN(C)CC4)ccc3OCC)nc12" ?
Response given: 0

Challenge: Next up: CN(C)Cc1ccc(CSCCN/C(=C\[N+](=O)[O-])NCc2ccc3c(c2)OCO3)o1 [NIPEROTIDINE]
Response given: 0

Challenge: Queued: "N[C@@H](Cc1ccc(N(CCCl)CCCl)cc1)C(=O)O"
Response given: 0
